Source of measurements: the supplement of paper PMC13380429

# Tested on: Calu-3
# Assay summary: cell viability relative to DMSO; higher = less toxic
# Condition parameters: 72 h; 10000 nM
Observable: cell viability (%)
Give bare numbers, in %.

# annotated cases, reported cell viability shown
1) CCCC(C)C1(CC)C(=O)NC(=O)NC1=O (stereo not drawn); 94.1
2) N#Cc1cccc(-c2c[nH]c3ncnc(N4CCOCC4)c23)c1; 115
3) CCCCC[C@H](O)/C=C/[C@H]1[C@H](O)CC(=O)[C@@H]1CCCCCCC(=O)O; 98.1
4) Cn1c(COc2ccc(CC3SC(=O)NC3=O)cc2)nc2ccccc2c1=O (stereo not drawn); 84.3
5) Nc1nc(=O)n([C@H]2C[C@H](O)[C@@H](CO)O2)cc1F; 68.3
6) COc1ccc(C(=O)c2ccccc2O)c(O)c1; 106
7) On1ncc(C2CCNCC2)c1-c1cccc(-c2ccccc2)c1; 107
8) C[N+](C)(C)CCCCCC[N+](C)(C)C; 103
9) O[C@@](Cc1nc(CC2(C(F)(F)F)CC2)c[nH]1)(c1ccc(-n2cccn2)cc1)C(F)(F)F; 87.5
10) CCC[C@H](Nc1nc(-c2ccc(NC(=O)NCC)c(OC)c2)ncc1C)c1cccnc1; 37.5

Required: cell viability, one value per molecule below.
1. C[C@]12CCC(=O)C[C@@H]1CC[C@@H]1[C@@H]2CC[C@]2(C)C=CC[C@@H]12
2. C=C[C@]1(C)C[C@@H](OC(=O)CS[C@@H]2C[C@H]3CC[C@@H](C2)N3C)[C@]2(C)[C@H](C)CC[C@]3(CCC(=O)[C@H]32)[C@@H](C)[C@@H]1O
3. CC(C)NCC(O)COc1ccc(COCCOC(C)C)cc1 (stereo not drawn)
4. O=C(NC[C@H]1CN(c2ccc(N3CCOCC3=O)cc2)C(=O)O1)c1ccc(Cl)s1
5. O=C(O)Cc1ccc(OCCNC[C@H](O)c2ccccc2)cc1

output:
1: 80.2; 2: 97.8; 3: 108; 4: 96.4; 5: 96.2

====

Can you tell me cell viability for the items I'm about to list?
# System: Vero E6
# Assay summary: cell viability relative to DMSO; higher = less toxic
# Condition parameters: 72 h; 100 nM
Answers are plain numbers, in %.

# annotated cases, reported cell viability shown
1) Cc1nnc(C[C@@H]2C=C(c3ccc(Cl)cc3)c3ccccc3-n3c(C)nnc32)o1; 72.1
2) CNc1nc(NCc2ccc(NS(C)(=O)=O)cc2Cl)cc(-c2ccccn2)n1; 98.3
3) NC(=O)Nc1sc(-c2ccc(F)cc2)cc1C(N)=O; 101
4) CCc1oc2ccccc2c1C(=O)c1cc(Br)c(O)c(Br)c1; 104

Required: cell viability, one value per compound below.
1. O=C(COc1ccc(Cl)cc1)N1CCN(Cc2ccc3c(c2)OCO3)CC1 [fipexide]
2. COc1cc(OC)c(C(=O)CCCN2CCCC2)c(OC)c1
3. C=C1CC[C@@H]2[C@](C)(CO)[C@H](O)CC[C@@]2(C)[C@@H]1C/C=C1/C(=O)OC[C@H]1O [andrographolide]
4. c1ccc(-c2n[nH]cc2-c2ccnc3ccccc23)nc1
5. CCn1cc(C(=O)O)c(=O)c2cc(F)c(N3CCN(C)CC3)cc21
6. CN[C@@H](C)CC1CCCCC1
7. CSc1ccccc1OCC(O)CNC(C)C (centres undefined)
8. Oc1cc2c(cc1O)[C@H](Cc1cccc3ccccc13)NCC2

output:
1. 101
2. 94.1
3. 98
4. 99.4
5. 94.2
6. 106
7. 98.6
8. 100

====

# System: HepG2
# Assay summary: cell viability relative to DMSO; higher = less toxic
# Condition parameters: 72 h; 10 nM
Observable: cell viability (%)
One number for each entry, in %.

# annotated cases, reported cell viability shown
1. Cc1ccc(C(=O)c2ccc(CC(=O)O)n2C)cc1; 109
2. COc1cc2c(cc1OC)CC(=O)N(CCCN(C)C[C@H]1Cc3cc(OC)c(OC)cc31)CC2; 113
3. CC#CCC(C)[C@H](O)/C=C/[C@@H]1[C@H]2C/C(=C/CCCC(=O)O)C[C@H]2C[C@H]1O (stereo not given in full); 90.6
4. CN1c2c([nH]c(N)nc2=O)NC[C@@H]1CNc1ccc(C(=O)N[C@@H](CCC(=O)O)C(=O)O)cc1; 89.8
5. Nc1ccn([C@@H]2CS[C@H](CO)O2)c(=O)n1; 93.4
6. NC(=O)c1cccc(N)c1 [3-amino-benzamide]; 81.8

Required: cell viability, one value per molecule below.
1. Cc1cc(N2CCOCC2)cc2[nH]c(-c3c(NC[C@@H](O)c4cccc(Cl)c4)cc[nH]c3=O)nc12
2. C/C(=C\c1ccc(C(=O)O)cc1)c1ccc2c(c1)C(C)(C)CCC2(C)C
3. CCc1ccc(Cc2ccc3c(c2)[C@]2(OC3)O[C@H](CO)[C@@H](O)[C@H](O)[C@H]2O)cc1
4. Cc1ccc2c(N3CCN(CCc4cccc(N5CCNC5=O)c4)CC3)cccc2n1
5. CCOC1O[C@H]([C@@H](COCc2ccccc2)OCc2ccccc2)[C@H](OCc2ccccc2)[C@H]1O (stereo not given in full) [tribenoside]
6. C[C@H](Cc1cc2c(c(C(N)=O)c1)N(CCCO)CC2)NCCOc1ccccc1OCC(F)(F)F
7. CS(=O)(=O)c1cccc(CNc2nc(Nc3ccc4c(c3)CCC(=O)N4)ncc2C(F)(F)F)c1
8. COC[C@@H](NC(C)=O)C(=O)NCc1ccccc1 [Lacosamide]

output:
101
106
94.3
98.6
104
97.7
111
97.5

====

# Tested on: Calu-3
# Assay summary: cell viability relative to DMSO; higher = less toxic
# Condition parameters: 72 h; 1000 nM
Can you tell me cell viability for the items I'm about to list?
Give the number first and the unit second.

# annotated cases, reported cell viability shown
1. O=C1c2c(O)cc(O)cc2O[C@H](c2ccc(O)c(O)c2)[C@H]1O [taxifolin]; 102%
2. O=C(Nc1nc2ccc(NC(=O)C34CC5CC(CC(C5)C3)C4)cc2s1)c1ccccc1 [NVP-231]; 93.1%
3. Nc1[nH]cnc2ncnc1-2 [adenine]; 108%
4. Oc1ccc2c3c1O[C@H]1c4oc5ccccc5c4C[C@@]4(O)[C@@H](C2)N(CC2CC2)CC[C@]314 [naltriben]; 87.7%
5. O=c1ncn2nc(Sc3ccc(F)cc3F)ccc2c1-c1c(Cl)cccc1Cl [VX-745]; 82.9%

Required: cell viability, one value per compound below.
1. Cc1ccc(S(=O)(=O)NCc2ccccc2)cc1 [BTS]
2. Fc1cccc(/C=N/N=C/c2cccc(F)c2)c1 [DFB]
3. CC[N+](CC)(CC(=O)Nc1c(C)cccc1C)Cc1ccccc1 [denatonium-benzoate]
4. CCC(=O)NCC[C@@H]1CCc2ccc3c(c21)CCO3 [ramelteon]
5. C=C[C@]1(C)C[C@@H](OC(=O)CS[C@@H]2C[C@H]3CC[C@@H](C2)N3C)[C@]2(C)[C@H](C)CC[C@]3(CCC(=O)[C@H]32)[C@@H](C)[C@@H]1O [retapamulin]
6. NC(=O)c1ccc(-c2nc(-c3ccccn3)c(-c3ccc4c(c3)OCO4)[nH]2)cc1

output:
102%
105%
92.8%
86.3%
98.2%
110%

Required: cell viability, one value per compound below.
1. CCN(CC)CCOCCOC(=O)C(CC)(CC)c1ccccc1 [oxelaidin]
2. O=C(O)Cc1cccc(OCCCN(Cc2cccc(C(F)(F)F)c2Cl)CC(c2ccccc2)c2ccccc2)c1 [GW-3965]
3. Cc1cc(N2CCOCC2)cc2[nH]c(-c3c(NC[C@@H](O)c4cccc(Cl)c4)cc[nH]c3=O)nc12
4. CC[C@@H](CO)NC(=O)[C@@H]1C=C2c3cccc4c3c(cn4C)C[C@H]2N(C)C1 [methysergide]
5. C[C@]12CC[C@@H]3c4ccc(OC(=O)N(CCCl)CCCl)cc4CC[C@H]3[C@@H]1CC[C@@H]2OP(=O)(O)O [estramustine-phosphate]
6. CCOc1ccccc1C(N)=O [ethenzamide]

output:
94.5%
114%
81.9%
97%
99.9%
98.1%

====

Can you tell me cell viability for the items I'm about to list?
# Test system: Calu-3
# Assay summary: cell viability relative to DMSO; higher = less toxic
# Condition parameters: 72 h; 1 nM
Give bare numbers, in %.

1. O=c1[nH]c(CCl)nc2sc3c(c12)CCCC3; 116
2. O=C(O)c1cc(C(=O)O)c(C(=O)N(Cc2cccc(Oc3ccccc3)c2)[C@H]2CCCc3ccccc32)cc1C(=O)O; 102
3. CCN(CC)CCOCCOC(=O)C(CC)(CC)c1ccccc1 [oxelaidin]; 99
4. CCCC[C@@H](NC(=O)[C@@H](Cc1cn(C(=O)OC)c2ccccc12)NC(=O)[C@H](CC(C)(C)C)NC(=O)N1[C@H](C)CCC[C@@H]1C)C(=O)O [BQ-788]; 98.9
5. CC(=O)NCC(=O)N1[C@@H]2CC[C@H]1c1ccc(Nc3ncc(C(F)(F)F)c(NC4CCC4)n3)cc12; 101

Required: cell viability, one value per compound below.
1. O=C(NCc1ccncc1)C12CC3CC(C1)CC(c1ccc(Cl)cc1)(C3)C2
2. Cn1c(C#N)ccc1-c1ccc2c(c1)C(C)(C)OC(=S)N2 [tanaproget]
3. CN(c1ncccc1CNc1nc(Nc2ccc3c(c2)CC(=O)N3)ncc1C(F)(F)F)S(C)(=O)=O
4. CC(=O)Nc1ccc(Cc2ccc(NC(C)=O)cc2)cc1 [FH1]
5. NC(=O)c1ccc(-c2nc(-c3ccccn3)c(-c3ccc4c(c3)OCO4)[nH]2)cc1
6. C[C@H](NC(=O)CNC(=O)c1cccc(Cl)c1)c1ccccc1
7. CN/C(=N\CCSCc1nc[nH]c1C)NC#N [cimetidine]
8. CC[C@H](C)[C@H](NC(=O)[C@H](Cc1ccc(O)cc1)NC(=O)[C@@H](NC(=O)[C@H](CCCNC(=N)N)NC(=O)[C@@H](N)CC(=O)O)C(C)C)C(=O)N[C@@H](Cc1c[nH]cn1)C(=O)N1CCC[C@H]1C(=O)O [TXA127]

output:
[104, 105, 108, 95.7, 92.2, 91.2, 104, 95.2]

Required: cell viability, one value per compound below.
1. CCCCC[C@H](O)/C=C/[C@H]1[C@H](O)CC(=O)[C@@H]1CCCCCCC(=O)O [alprostadil]
2. CCC[C@H](Nc1nc(-c2ccc(NC(=O)NCC)c(OC)c2)ncc1C)c1cccnc1 [CYT-997]

output:
1. 99
2. 99.4
